Test: off-target signal loss in HeLa-CEM21 co-culture – HeLa F-luc CTL cells, cherry-picked, counter-screen for HIV-1 Env fusion inhibitor project, dose response (AID 652040);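 note: more negative values mean stronger loss of luciferase signal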
Conditions: HeLa-F-luc CTL cells with CEM21, firefly luciferase counterscreen; series mostly up to 35 µM
Results with a measured potency or affinity are listed apart. Active and inactive are the calls of the source.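 Rule for the calls: active = falling luciferase signal whose fitted half-maximal concentration is at most twice the top tested dose; inconclusive = flat inhibition between 30 and 70% or a poor curve fit; inactive = the rest.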
observed_property: activity change, negative = inhibition

- molecule: "COc1cc(CSc2nnnn2-c2ccc(C)cc2)cc(OC)c1OC"
  result: "inactive"
- molecule: "c1csc(CNc2ncnc3sccc23)c1"
  result: "inactive"
- molecule: "COc1ccc(CCNC(=O)COC(=O)c2cccn2C)cc1"
  result: "inactive"
- molecule: "CCOC(=O)C1CCN(C(=O)c2ccc3c(c2)C(=O)N(c2ccccc2C)C3=O)CC1"
  result: "inactive"
- molecule: "CC1Cc2cc(-c3csc(NC(=O)Cc4cccs4)n3)ccc2N1S(C)(=O)=O (stereo unspecified)"
  result: "inactive"
- molecule: "N#Cc1c(NCc2ccccc2)ccnc1NCc1cccnc1"
  result: "inactive"
